testSystem: R/H168^4.64 variant NxStaR (Homo sapiens, UniProt P35414, F214L/I224A/N112A/R168H/S298A/T207M/T87V)
testDescription: SPR, pH dependence (Biacore 8K+), R/H168^4.64 NxStaR
conditions: pH 7.5, 0.02% DDM, 5% DMSO, 10 °C, single determination
valueKind: Kd (nM)
Form entry: value (nM) — number only.

IN: Form field: reported Kd of `CCC(CC)n1c(Cc2cccs2)nc2cc(C(=O)N[C@H](CC(=O)O)CC(C)C)ccc21`
OUT: 68.7

###

testSystem: apelin receptor NxStaR (Homo sapiens, UniProt P35414, F214L/I224A/N112A/S298A/T207M/T87V)
Sequence (P35414 1-380 T87V/N112A/T207M/F214L/I224A/S298A): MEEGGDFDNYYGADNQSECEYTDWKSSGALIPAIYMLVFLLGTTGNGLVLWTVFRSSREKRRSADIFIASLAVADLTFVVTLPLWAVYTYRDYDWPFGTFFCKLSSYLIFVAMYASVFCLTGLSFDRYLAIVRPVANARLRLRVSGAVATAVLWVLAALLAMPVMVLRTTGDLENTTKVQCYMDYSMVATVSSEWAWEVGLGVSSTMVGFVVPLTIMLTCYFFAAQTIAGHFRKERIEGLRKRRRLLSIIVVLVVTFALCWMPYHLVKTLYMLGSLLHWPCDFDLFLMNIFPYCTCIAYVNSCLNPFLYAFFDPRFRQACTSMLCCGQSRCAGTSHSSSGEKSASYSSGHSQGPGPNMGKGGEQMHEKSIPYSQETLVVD
testDescription: SPR, pH dependence (Biacore 8K+), NxStaR
conditions: pH 7.5, 0.02% DDM, 5% DMSO, 10 °C, single determination
valueKind: Kd (nM)
Write the number in nM without appending the unit.

IN: Endpoint output: Kd of `CCC(CC)n1c(Cc2cccs2)nc2cc(C(=O)N[C@H](CC(=O)O)CC(C)C)ccc21` . Value?
OUT: 6.1

# credit: paper PMC11680790
